test system: Rat α-Glucosidase; assay: Alpha-glucosidase inhibition assay (rat intestinal acetone powder, pNPG substrate); assay type: biochemical; conditions: purified compounds and acarbose, Figure 2
Readout name: maximum inhibition (%)

C[C@@H]1O[C@@H](Oc2cc3c(=O)oc4c(O)c(O)cc5c(=O)oc(c2O)c3c45)[C@H](O)[C@H](O)[C@H]1O [EWC, eschweilenol C]    93
O=C(O)c1cc(O)c(O)c(O)c1 [GA, gallic acid]    80

Where do the numbers come from? From paper PMC10223997.
